All figures here come from patent US9913828B2.

# Measured on: UniProt P07550
# Sequence (P07550 whole entry): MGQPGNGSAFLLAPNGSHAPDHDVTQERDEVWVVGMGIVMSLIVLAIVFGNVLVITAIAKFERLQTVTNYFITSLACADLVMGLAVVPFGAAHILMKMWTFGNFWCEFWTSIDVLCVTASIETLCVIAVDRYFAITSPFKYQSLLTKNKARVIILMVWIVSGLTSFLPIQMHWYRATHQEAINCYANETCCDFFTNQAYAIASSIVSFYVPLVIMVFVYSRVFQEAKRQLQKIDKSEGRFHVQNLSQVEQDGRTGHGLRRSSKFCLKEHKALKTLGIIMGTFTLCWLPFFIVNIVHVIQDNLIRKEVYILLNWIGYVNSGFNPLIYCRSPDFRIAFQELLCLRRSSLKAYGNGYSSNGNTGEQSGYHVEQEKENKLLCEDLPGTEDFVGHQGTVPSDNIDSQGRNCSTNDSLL
# Measurement protocol: cAMP response in CHO cells stably transfected with human β2 adrenoceptor (Test 1)
pEC50: −log10 of the molar value.
Measure: pEC50

[ask] Reported pEC50, compound CCCCOc1ccc(CC(C)(C)NC[C@H](O)c2cc(O)cc3[nH]c(=O)sc23)cc1 [Compound A] : ____
[reply] > 8.00

* * *

# Measured on: α1A AR (Homo sapiens)
# Sequence (P35348 whole entry): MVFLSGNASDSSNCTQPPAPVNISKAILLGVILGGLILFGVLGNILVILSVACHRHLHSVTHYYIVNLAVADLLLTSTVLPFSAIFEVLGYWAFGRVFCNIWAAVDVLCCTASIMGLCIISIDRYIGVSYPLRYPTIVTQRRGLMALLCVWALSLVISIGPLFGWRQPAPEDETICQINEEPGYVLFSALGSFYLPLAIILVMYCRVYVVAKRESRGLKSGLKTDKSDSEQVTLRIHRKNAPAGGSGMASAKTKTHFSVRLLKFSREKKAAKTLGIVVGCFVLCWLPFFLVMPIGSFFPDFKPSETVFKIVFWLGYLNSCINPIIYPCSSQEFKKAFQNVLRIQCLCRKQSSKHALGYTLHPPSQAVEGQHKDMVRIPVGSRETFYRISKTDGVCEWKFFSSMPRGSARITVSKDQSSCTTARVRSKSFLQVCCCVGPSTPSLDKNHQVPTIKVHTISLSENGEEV
# Measurement protocol: Ca2+ FLIPR assay in human adrenergic Alpha1A CHO-K1 cell line (Test 1)
# Assay type: cell-based
# Recorded conditions: read-out: CHO cells EC50 α1A AR
Measure: EC50

[ask] Requested field: EC50. Item: `CCCCOc1ccc(CC(C)(C)NC[C@H](O)c2cc(O)cc3[nH]c(=O)sc23)cc1`
[reply] > 10 µM
